Assign inhibition to each entry below.
# test system: Regulator of chromosome condensation (Homo sapiens) + GTP-binding nuclear protein Ran (Homo sapiens) + Importin subunit beta-1 (Homo sapiens) (UniProt P18754+P62826+Q14974)
# experiment summary: RanGTP/importin-beta interaction disruptors – biochemical, CFP-Ran/YFP-importin-beta FRET, RCC1, cell-free, primary screen (AID 434961);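 also: 0% = DMSO wells and 100% inhibition = RanGDP control wells on each plate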
# condition label: hits give high values, concentration not given here
About 15 (0.2%) of roughly 7,700 compounds were called active. Inconclusive results (about 6%) are left out. The sample as a whole holds a higher share of actives than the screen did.
One number for each entry, in %.

Task: Could you tell me which inhibition is on file for `Cc1noc(C)c1NC(=O)N(C)C[C@@H]1Oc2ccc(N(C)C)cc2CC(=O)N([C@H](C)CO)C[C@@H]1C` ?
Result: 1.55

Task: Another compound to check: `COc1ccc(CN(C)C[C@H]2Oc3ccc(NC(=O)Nc4ccc(C(F)(F)F)cc4)cc3C(=O)N([C@H](C)CO)C[C@H]2C)cc1`
Result: -1.47

Task: Another compound to check: `C[C@H]1CN([C@@H](C)CO)C(=O)c2cccc(NS(=O)(=O)c3cn(C)cn3)c2O[C@H]1CN(C)C`
Result: 31

For every listed record, write down its inhibition.
1. Cc1noc(C)c1NC(=O)Nc1ccc2c(c1)C(=O)N([C@H](C)CO)C[C@H](C)[C@H](CN(C)C(=O)Nc1c(C)noc1C)OCCCC[C@H](C)O2
2. COc1ccc(NC(=O)Nc2ccc3c(c2)C(=O)N([C@@H](C)CO)C[C@H](C)[C@H](CN(C)C)O3)cc1
3. Cc1ccc(S(=O)(=O)Nc2ccc3c(c2)CC(=O)N([C@H](C)CO)C[C@H](C)[C@@H](CN(C)Cc2ccncc2)O3)cc1
4. C[C@H]1CN([C@@H](C)CO)C(=O)c2cccc(NS(=O)(=O)c3cn(C)cn3)c2O[C@@H]1CN(C)C
5. C[C@@H]1CN([C@@H](C)CO)C(=O)Cc2cc(NS(=O)(=O)c3cn(C)cn3)ccc2O[C@@H]1CN(C)C(=O)Nc1ccc(F)cc1

Result:
1. -1.94
2. 4.32
3. 0.0587
4. 0.914
5. -4.41

* * *

Assign inhibition to each entry below.
# test system: Regulator of chromosome condensation (Homo sapiens) + GTP-binding nuclear protein Ran (Homo sapiens) + Importin subunit beta-1 (Homo sapiens) (UniProt P18754+P62826+Q14974)
# experiment summary: RanGTP/importin-beta interaction disruptors – biochemical, CFP-Ran/YFP-importin-beta FRET, RCC1, cell-free, primary screen (AID 434961);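 also: 0% = DMSO wells and 100% inhibition = RanGDP control wells on each plate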
# condition label: hits give high values, concentration not given here
Out of some 7,700 compounds screened, about 15 (0.2%) were called active. About 6% were inconclusive and are not listed. The full list was thinned out, with actives kept by preference.

Known inhibition results, listed for orientation:
Task: Could you tell me which inhibition is on file for `CNC[C@H]1Oc2ccc(NC(=O)NC(C)C)cc2CC(=O)N([C@H](C)CO)C[C@H]1C` ?
Result: -4.07% (inactive)

Task: Another compound to check: `C[C@H](CO)N1C[C@H](C)[C@@H](CN(C)C(=O)NC2CCCCC2)Oc2ccc(N(C)C)cc2C1=O`
Result: 3.39% (inactive)

Task: Another compound to check: `C[C@H](CO)N1C[C@H](C)[C@H](CN(C)C(=O)c2ccccc2)OCc2cnnn2CCCC1=O`
Result: 3.45% (inactive)

Task: Another compound to check: `CC(C)NC(=O)N(C)C[C@H]1Oc2ccc(N(C)C)cc2CC(=O)N([C@H](C)CO)C[C@@H]1C`
Result: 0.831% (inactive)

Task: Another compound to check: `C[C@H]1CN([C@@H](C)CO)C(=O)Cc2cc(NC(=O)Cc3cn(C)c4ccccc34)ccc2O[C@@H]1CN(C)C(=O)Nc1ccccc1`
Result: 0.0312% (inactive)

Task: Another compound to check: `C[C@H](CO)N1C[C@H](C)[C@H](CN(C)S(=O)(=O)c2cccs2)Oc2c(NC(=O)Nc3ccc(C(F)(F)F)cc3)cccc2C1=O`
Result: 3.84% (inactive)

Task: Another compound to check: `C[C@H](CO)N1C[C@H](C)[C@@H](CN(C)C(=O)Nc2ccc(F)cc2)Oc2c(NS(=O)(=O)c3ccc(Cl)cc3)cccc2C1=O`
Result: 2.75% (inactive)

Task: Another compound to check: `COc1ccc(S(=O)(=O)N(C)C[C@H]2Oc3c(NC(=O)C4CC4)cccc3C(=O)N([C@@H](C)CO)C[C@@H]2C)cc1`
Result: -1.54% (inactive)

For every listed record, write down its inhibition.
1. COc1ccc(NC(=O)N(C)C[C@@H]2Oc3ncc(C#Cc4ccccc4)cc3C(=O)N([C@H](C)CO)C[C@@H]2C)cc1
2. C[C@@H]1CCCCO[C@@H](CN(C)Cc2ccncc2)[C@H](C)CN([C@@H](C)CO)C(=O)c2cc(NC(=O)c3ccncc3)ccc2O1
3. C[C@@H]1CCCCO[C@H](CN(C)Cc2ccncc2)[C@H](C)CN([C@H](C)CO)C(=O)c2cc(NS(C)(=O)=O)ccc2O1
4. CNC[C@H]1Oc2c(cccc2N(C)C)C(=O)N([C@H](C)CO)C[C@H]1C
5. C[C@H](CO)N1C[C@H](C)[C@@H](CN(C)S(=O)(=O)c2ccccc2)Oc2ccc(NC(=O)NC3CCCCC3)cc2C1=O
6. C[C@@H]1CCCCO[C@@H](CN(C)S(=O)(=O)c2cn(C)cn2)[C@H](C)CN([C@@H](C)CO)C(=O)c2cc(NC(=O)c3ccccc3)ccc2O1
7. Cc1noc(C)c1S(=O)(=O)Nc1cccc2c1O[C@H](CN(C)C(=O)NC1CCCCC1)[C@H](C)CN([C@@H](C)CO)C2=O

Result:
["2.4% (inactive)", "5.19% (inactive)", "0.0179% (inactive)", "-1.15% (inactive)", "3.44% (inactive)", "1.13% (inactive)", "-6.51% (inactive)"]

For every listed record, write down its inhibition.
1. C[C@@H]1CN([C@H](C)CO)C(=O)Cc2cc(NC(=O)C3CC3)ccc2O[C@H]1CN(C)C
2. C[C@H](CO)N1C[C@H](C)[C@H](CN(C)S(=O)(=O)c2cn(C)cn2)Oc2ccc(N(C)C)cc2CC1=O

Result:
["-6.15% (inactive)", "-2.21% (inactive)"]

These entries and their values trace back to PubChem BioAssay AID434961.
